System: P. falciparum infected erythrocytes
Assay: P. falciparum growth inhibition assay ([3H]hypoxanthine incorporation)
Type: cell-based, Plasmodium falciparum
Details: Plasmodium falciparum, Erythrocyte; read-out: average PfIC50
As shown below, each of these compounds has a reported IC50 value.

N[C@@H](COc1ccc(C(=O)N2CC[C@H](c3ccc(F)cc3)C2)cc1)Cn1ncnn1 ... 0.018 µM
O=C(c1ccc(OC[C@H](O)Cn2ncnn2)cc1)N1CC[C@H](c2ccc(Cl)cc2)C1 ... ≤ 0.05 µM
O=C(c1ccc(OC[C@H](O)Cn2ccnn2)cc1)N1CC[C@H](c2ccc(F)cc2)C1 ... ≤ 0.05 µM
O=C(c1ccc(OC[C@H](O)Cn2ncnn2)cc1)N1CCC(c2ccc(F)cc2F)C1 (single isomer, unassigned) [Example 42a] ... ≤ 0.05 µM
O=C(c1ccc(OC[C@H](O)Cn2ncnn2)cc1)N1CCC(c2cccc(F)c2)C1 (single isomer, unassigned) [Example 41a] ... ≤ 0.05 µM
O=C(c1ccc(OC[C@H](O)Cn2nccn2)cc1)N1CC[C@H](c2ccc(F)cc2)C1 ... ≤ 0.05 µM

stdin: I would be grateful if you could share the reported IC50 for O=C(c1ccc(OC[C@H](O)Cn2ncnn2)cc1)N1CC[C@@H](c2ccc(F)cc2)C1 .
stdout: 0.054 µM

stdin: I would be grateful if you could share the reported IC50 for O=C(c1ccc(OC[C@H](O)Cn2ncnn2)cc1)N1CCC(c2ccccc2F)C1 (single isomer, unassigned) [Example 40a] .
stdout: ≤ 0.05 µM

// data source = patent US11453657B2
